Data origin, for the record: ChEMBL document CHEMBL4024791

Assay: Intrinsic clearance in rat liver microsomes
value.type: microsomal CLint (µL/min/mg)

Examples with answers:
[
  {
    "molecule": "O=C1COc2ccc(N3C[C@@H](CO)OC[C@H]3c3ccccc3)nc2N1",
    "value.type": "microsomal CLint",
    "reported.value": 44
  },
  {
    "molecule": "C[C@@H]1CN(c2ncc3c(n2)NC(=O)CO3)[C@H](c2ccccc2)CO1",
    "value.type": "microsomal CLint",
    "reported.value": 146
  }
]

(1) C[C@@H]1CN(c2ccc3c(c2)NC(=O)CO3)[C@H](c2ccccc2)CO1
(2) O=C1COc2ccc(N3CCOC[C@H]3c3ccccc3)cc2N1
Problem: Hi team, can someone confirm which has the larger microsomal CLint: 1 or 2 ? Thanks. # respond with the chosen item's label
Solution: 1
(1: 377 µL/min/mg, 2: 223 µL/min/mg)
